systemUnderTest: UniProt Q76NM3
Sequence (Q76NM3 1-316): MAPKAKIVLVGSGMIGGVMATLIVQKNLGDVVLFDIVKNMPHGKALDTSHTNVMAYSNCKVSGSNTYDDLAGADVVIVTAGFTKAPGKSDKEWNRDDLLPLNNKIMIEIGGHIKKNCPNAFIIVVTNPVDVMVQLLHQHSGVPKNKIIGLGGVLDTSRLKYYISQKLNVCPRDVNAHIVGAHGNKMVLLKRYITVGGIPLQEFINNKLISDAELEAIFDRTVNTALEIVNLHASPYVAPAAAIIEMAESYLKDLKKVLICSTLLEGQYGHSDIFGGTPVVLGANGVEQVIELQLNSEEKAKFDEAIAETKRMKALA
readoutName: Kd
Kindly report the value followed by its unit.

Qu. Please report the recorded Kd for C=C(C)[C@@H]1CC[C@]2(C(=O)O)CC[C@]3(C)[C@H](CC[C@@H]4[C@@]5(C)CC[C@H](O)C(C)(C)[C@@H]5CC[C@]43C)[C@@H]12 .
Ans. 104 nM
